Molecular target: hFAP-Fc (human) (UniProt Q12884)
Sequence (Q12884 26-760 limits assumed): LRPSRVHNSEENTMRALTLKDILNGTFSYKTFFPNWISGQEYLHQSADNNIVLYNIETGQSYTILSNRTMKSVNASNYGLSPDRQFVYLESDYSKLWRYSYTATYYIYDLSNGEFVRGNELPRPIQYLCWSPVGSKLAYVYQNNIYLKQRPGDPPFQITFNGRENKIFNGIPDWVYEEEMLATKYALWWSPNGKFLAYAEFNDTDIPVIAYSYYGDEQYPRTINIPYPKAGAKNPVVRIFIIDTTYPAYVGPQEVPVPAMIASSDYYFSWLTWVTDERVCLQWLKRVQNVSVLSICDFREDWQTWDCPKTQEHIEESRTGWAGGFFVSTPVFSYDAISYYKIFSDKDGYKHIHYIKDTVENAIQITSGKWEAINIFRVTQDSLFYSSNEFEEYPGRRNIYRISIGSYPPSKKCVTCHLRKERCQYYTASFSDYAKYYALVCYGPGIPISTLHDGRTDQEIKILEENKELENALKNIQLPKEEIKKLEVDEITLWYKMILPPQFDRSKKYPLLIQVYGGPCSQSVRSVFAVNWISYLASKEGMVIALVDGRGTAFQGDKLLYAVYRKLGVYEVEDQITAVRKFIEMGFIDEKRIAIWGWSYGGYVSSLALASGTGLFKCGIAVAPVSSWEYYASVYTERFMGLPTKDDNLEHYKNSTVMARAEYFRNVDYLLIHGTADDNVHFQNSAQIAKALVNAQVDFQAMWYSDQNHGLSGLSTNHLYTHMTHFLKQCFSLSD
Experiment: SPR, Fc-tagged FAP captured on immobilised protein A, pH 7.3, 1:1 Langmuir fit
pKd: −log10 of the molar value.
observation_type: pKd

binder="LAEAKVLALKELDKYGISNYYKNLINNAKTIEGVKALKDEIVAA (designed binder, part only; not given: FAP binding domain, linkers, tags, part only) [221215]" obs_value=8.10
binder="LAEAKVLALKELDKYGISNYYKNLINNAKTVEGVKALKEAIVAA (designed binder, part only; not given: FAP binding domain, linkers, tags, part only) [221191]" obs_value=8.42
